Data origin: PubChem BioAssay

- EXPERIMENT: small-molecule microarray binders of probe aDKK1, primary screen, biochemical, biotinylated probe, 635/667 nm fluorescence (AID 1099);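 also: score merges 667nm spot fluorescence with signal to noise across triplicate slides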
- CONDITION DETAILS: higher = more signal
READOUT: composite z-score
Numbers only.

INSERT INTO measurements (compound, measured) VALUES
  ('CCOC(=O)[C@H](Cc1ccccc1)NC(=O)CCC1CC(OC(=O)NCCc2ccc(F)cc2)CC2(CCCC(COC(=O)NCC(c3ccccc3)c3ccccc3)O2)O1 (some centres not stated)', -0.273),
  ('COC(=O)[C@@]1(Cc2ccc(OC)cc2)[C@H]2c3cc(C(=O)N4CCCC4)n(Cc4cc(F)c(F)c(F)c4)c3C[C@H]2CN1C(=O)c1ccccc1', 2.47),
  ('COCC(=C=CC[C@@H](O)c1ccccc1OCCO)CCO', 0.117),
  ('N#Cc1ccc(NN2C(C(O)c3cc(C(F)(F)F)cc(C(F)(F)F)c3)C=CC3C(=O)N(c4ccccc4)C(=O)C32)cc1 (configuration not stated)', 0.175),
  ('CC(=O)OC[C@H]1O[C@@H](ON=C(C)CCN2CCc3nc(-c4ccccc4)c(-c4ccccc4)cc3C2)[C@H](OC(C)=O)[C@@H](OC(C)=O)[C@@H]1OC(C)=O', -0.119),
  ('CCCC=C(CCC)[C@@H](NC(=O)c1ccc(-c2ccccc2)cc1)c1ccc(C(=O)OC)cc1', 0.245);

Check the records and state composite z-score for `COC(=O)C1=C(C)N(Cc2ccccc2)[C@]23O[C@](C(=O)OC)(C(=O)N2[C@@H]1c1ccccc1)[C@H]1CCOC(=O)[C@H]13`
0.057

----------
Provide the recorded z-score for the entries that follow.
- EXPERIMENT: HepG2 cell viability effects, profiling panel, calcein-AM fluorescence, 48 h, basal (AID 1164); also: test concentration not given here
- CONDITION DETAILS: higher = more signal
Numbers only.

INSERT INTO assay_data (compound, measured) VALUES
  ('CN1C(=O)C2C=CC(C(O)C(c3ccccc3)c3ccccc3)N(NC(=O)OC(C)(C)C)C2C1=O (centres undefined)', -0.698),
  ('CCOC(=O)[C@H](CC(C)C)NC(=O)CCC1CC(OC(=O)NCc2cccc3ccccc23)CC2(CCCC(COC(=O)NCCN3CCOCC3)O2)O1 (some centres undefined)', -0.667),
  ('O=C1[C@H]2[C@H]3[C@H](O)[C@H](O)CC(=NOCc4ccccc4)[C@H]3CC[C@H]2C(=O)N1C[C@@H]1CCCO1', -0.85);

Note: attention shifts to another entry.
Check the records and state z-score for `COCCOC(=O)N1C(=O)[C@@]2(c3cc(C#Cc4ccc(OC)cc4)ccc31)[C@H](c1ccc(O)cc1)N1[C@H](c3ccccc3)[C@H](c3ccccc3)OC(=O)[C@H]1[C@@H]2C(N)=O`
-0.531

----------
Provide the recorded composite z-score for the entries that follow.
- EXPERIMENT: binders of probe aFST on microarray, primary screen, stem cell growth factor project, biochemical, small-molecule microarray, fluorescence 635/667 (AID 1086);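 also: score merges 667 nm fluorescence with signal-to-noise of each printed compound spot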
- CONDITION DETAILS: higher = more signal

INSERT INTO assay_data (compound, readout, measured) VALUES
  ('O=C1[C@H]2[C@H]3[C@H](O)[C@H](O)CC(=NOC[C@@H](O)COCc4ccco4)[C@H]3CC[C@H]2C(=O)N1C1CCCCC1', 'composite z-score', 0.101),
  ('CCOC(=O)NN=C1C[C@@H](O)[C@@H](O)[C@@H]2[C@@H]3C(=O)N(C4CCCCC4)C(=O)[C@@H]3CC[C@@H]12', 'composite z-score', 0.554),
  ('COC(=O)CC=C[C@@H](C)[C@@H](C=NO[C@@H](C)c1cc(-c2c(C)cc(C)cc2C)no1)OC', 'composite z-score', -0.358);

For each listed entry, give its composite z-score.
1. C[C@H]1CC[C@@H](C(=O)O)N[C@@H]1c1ccc(C#CCN(C)C)cc1
2. CN1C(=O)C2C=CC(C(O)c3ccc(Br)cc3)N(N(c3ccccc3)c3ccccc3)C2C1=O (configuration not stated)
3. COC(=O)[C@@]1(Cc2ccc(OC)cc2)[C@H]2c3cc(C(=O)N4CCCC4)n(Cc4cc(F)c(F)c(F)c4)c3C[C@H]2CN1C(=O)c1ccccc1
4. COc1ccc(COC(=O)NN=C2C[C@@H](O)[C@@H](O)[C@@H]3[C@@H]4C(=O)N(Cc5ccc6c(c5)OCO6)C(=O)[C@@H]4CC[C@@H]23)cc1

0.629
0.576
3.01
1.18

----------
- ASSAYED TARGET: Concanavalin-A (Canavalia ensiformis) (UniProt P02866)
- Sequence (P02866 whole entry, looked up): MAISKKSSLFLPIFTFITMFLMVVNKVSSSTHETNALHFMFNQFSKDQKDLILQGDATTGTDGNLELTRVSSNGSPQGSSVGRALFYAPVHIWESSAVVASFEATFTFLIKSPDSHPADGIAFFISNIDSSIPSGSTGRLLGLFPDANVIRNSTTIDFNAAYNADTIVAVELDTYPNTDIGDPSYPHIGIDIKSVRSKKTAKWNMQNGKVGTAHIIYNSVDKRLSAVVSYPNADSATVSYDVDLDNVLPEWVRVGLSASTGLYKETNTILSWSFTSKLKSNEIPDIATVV
- EXPERIMENT: ConA small-molecule binders, primary screen, artefact control for SMM control protein annotation, biochemical, small-molecule microarray, Alexa647 label, 635 nm (AID 1127);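 also: z combines 667 nm emission intensity with signal-to-noise across three replicate slides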
- CONDITION DETAILS: ConA-A647 binding fluorescence, higher = more signal
# cutoff 0.4 applies to composite z-score; >= gives 1 (yes), < gives 0 (no)

Solved entries (count: 6):
INSERT INTO measurements (compound_structure, category_label) VALUES
  ('C=CCNC(=O)[C@H]1[C@@H]2C(=O)O[C@@H](c3ccccc3)[C@@H](c3ccccc3)N2[C@@H](c2ccc(O)cc2)[C@]12C(=O)N(C(=O)OCCOC)c1ccc(C#CC3=CCCCC3)cc12', '1 (yes)'),
  ('CO[C@H]1O[C@H](CO)[C@@H](OC(=O)Nc2ccc3c(c2)OCO3)[C@H](OC(=O)Nc2ccccc2-c2ccccc2)[C@@H]1OC(=O)Nc1ccccc1-c1ccccc1', '1 (yes)'),
  ('CC(C)(C)OC(=O)CC[C@]1(C(=O)NCc2ccccc2)N=C(c2ccc(OCCCO)cc2)O[C@H]1c1ccccc1', '1 (yes)'),
  ('COC(=O)[C@H]1COC(c2ccc(OCCCO)cc2)=N1', '0 (no)'),
  ('CC(=O)OC[C@H]1O[C@H](C#CCCCc2ccccc2)C=C[C@@H]1OC(C)=O', '0 (no)'),
  ('CO[C@@H]1COC(=O)[C@@H]2CCCN2C(=O)[C@@H](C)COC(=O)[C@H](COCc2ccccc2)NC(=O)CC=C[C@H]1C', '0 (no)');

Moving on to another molecule below.
Decide: composite z-score of `CO[C@H]1COC(=O)[C@@H]2CCCN2C(=O)CC=C[C@@H](C)[C@H](OC)COC(=O)CC=C[C@@H]1C` >= 0.4?
0 (no)

----------
- EXPERIMENT: COS7 lysate on small-molecule microarray, probe aHis, 635 nm (AID 1123);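 also: z-score combines 667nm fluorescence intensity with signal-to-noise per printed compound spot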
- CONDITION DETAILS: COS7 cell lysate, fluorescence, higher = more signal
READOUT: composite z-score
One number for each entry.

Previously resolved entries follow.
INSERT INTO assay_data (molecule, readout, measured) VALUES
  ('CCCNC(=O)OC[C@H]1O[C@H](CCON=CC[C@@H]2C=C[C@H](OC(C)=O)[C@@H](COC(C)=O)O2)C=C[C@@H]1Oc1ccc(OC)cc1', 'composite z-score', 0.0884),
  ('CC(C)C[C@@H]1NC(=O)[C@H]2C[C@@H](C(=O)O)[C@@H](c3ccc(O)cc3)N2C1=O', 'composite z-score', 0.666),
  ('CN(C)CCCNC(=O)[C@@H]1c2ccccc2C(=O)N(Cc2cc(F)cc(C(F)(F)F)c2)[C@H]1c1ccc(CO)cc1', 'composite z-score', 0.969),
  ('C#CCCCON=C1C[C@@H](O)[C@@H](O)[C@@H]2[C@@H]3C(=O)N(c4cccc(Oc5ccccc5)c4)C(=O)[C@@H]3CC[C@@H]12', 'composite z-score', 1.77),
  ('COC(=O)[C@H]1COC(c2ccc(OCCCO)cc2)=N1', 'composite z-score', 2.38),
  ('CCCCCN1CC=CC23O[C@@H]4C=CCOC(=O)[C@@H]4[C@H]2C(=O)N(CCCCCCO)[C@@H]3C1=O (stereo partly drawn)', 'composite z-score', 0.629);

For each listed entry, give its composite z-score.
1. C[C@@H]1CCC2C(=O)N(Cc3ccccc3)C[C@@H](O)CN2[C@H]1c1ccc(Br)cc1 (stereo partly drawn)
2. O=C1O[C@@H](c2ccccc2)[C@@H](c2ccccc2)N2[C@@H](c3ccc(OCCO)cc3)[C@]3(C(=O)Nc4ccccc43)[C@@H](C(=O)N3CCN(c4ncccn4)CC3)[C@H]12
3. CN(C)C(=O)[C@@]1(Cc2ccccc2)N=C(c2ccc(OCCCO)cc2)O[C@H]1c1ccccc1CN=[N+]=[N-]
4. COc1ccc(COC(=O)NN=C2C[C@@H](O)[C@@H](O)[C@@H]3[C@@H]4C(=O)N(c5ccc(F)cc5F)C(=O)[C@@H]4CC[C@@H]23)cc1
5. CCOC(=O)NN=C1C[C@@H](O)[C@@H](O)[C@@H]2[C@@H]3C(=O)N(CC)C(=O)[C@@H]3CC[C@@H]12
6. O=C1[C@H]2[C@H]3[C@H](O)[C@H](O)CC(=NOCc4ccccc4)[C@H]3CC[C@H]2C(=O)N1C[C@@H]1CCCO1
7. COC(=O)C1=C(C)N(Cc2ccccc2)[C@]23O[C@](C(=O)OC)(C(=O)N2[C@@H]1c1ccccc1)[C@H]1CCOC(=O)[C@H]13
8. O=C1[C@H]2[C@H]3[C@H](O)[C@H](O)CC(=NOCc4ccccc4)[C@H]3CC[C@H]2C(=O)N1c1cccc(Oc2ccccc2)c1

1. 0.669
2. 1.84
3. 2.49
4. -0.413
5. 0.472
6. 0.469
7. -0.12
8. 1.14

For each listed entry, give its composite z-score.
1. CCOC(=O)[C@H](Cc1ccccc1)NC(=O)CCC1CC(OC(=O)NCCc2ccc(F)cc2)CC2(CCCC(COC(=O)NCC(c3ccccc3)c3ccccc3)O2)O1 (stereo partly drawn)
2. C=CCN1C(=O)[C@]2(O[C@H](CCn3cc(CCO)nn3)[C@@H]([Si](C)(C)c3ccc(OC)cc3)[C@@H]2C)c2cc(N3CCOC3=O)ccc21
3. O=C1[C@H]2[C@H]3[C@H](O)[C@H](O)CC(=NOC[C@@H](O)COCc4ccco4)[C@H]3CC[C@H]2C(=O)N1Cc1ccc2c(c1)OCO2
4. CC(=O)O[C@H]1C2=C(C(=O)[C@@H]3O[C@@H]31)[C@H]1C(C)O[C@@H]2[C@@]23C(=O)[C@@H]4O[C@@H]4[C@@H](O)C2=CO[C@H](C)[C@@H]13 (stereo partly drawn)
5. COC(=O)[C@H](C)NC(=O)CCC1CC(OC(=O)NCCc2ccc(F)cc2)CC2(CCCC(COC(=O)NCCc3ccc(Cl)cc3)O2)O1 (stereo partly drawn)
6. CO[C@H]1COC(=O)[C@H](C)NC(=O)[C@@H](C)COC(=O)CC=C[C@@H]1C
7. O=C1[C@H]2[C@H]3[C@H](O)[C@H](O)CC(=NO[C@@H]4O[C@H](CO)[C@@H](O)[C@H](O)[C@H]4O)[C@H]3CC[C@H]2C(=O)N1Cc1ccc2c(c1)OCO2
8. Cc1cc2c(c(=O)o1)[C@H](O)[C@H]1O[C@H]1C2=O

[1.04, 1.88, -0.385, -0.519, 0.925, -0.851, 1.42, -0.682]

For each listed entry, give its composite z-score.
1. COC(=O)[C@]1(CO)N=C(c2ccc(OCCCO)cc2)O[C@@H]1c1ccccc1N=[N+]=[N-]
2. O=C1O[C@@H](c2ccccc2)[C@@H](c2ccccc2)N2[C@@H](c3ccc(O)cc3)[C@]3(C(=O)Nc4ccccc43)[C@@H](C(=O)O)[C@H]12
3. O=C1[C@H]2[C@H]3[C@H](O)[C@H](O)CC(=NO[C@@H]4O[C@H](CO)[C@@H](O)[C@H](O)[C@H]4O)[C@@H]3CC[C@H]2C(=O)N1Cc1ccc2c(c1)OCO2
4. CCc1cc2c(nc1CC)CCN(CCC(C)=NOC[C@@H](O)COCc1ccco1)C2
5. O=C1c2ccccc2[C@@]2(Cc3ccccc3N(C3CC3)C2=O)[C@H](c2ccc(CO)cc2)N1Cc1ccccc1C(F)(F)F
6. CC(C)N1CC=CC23O[C@@H]4C=CCCOC(=O)C4[C@H]2C(=O)N(CCCCCCO)[C@@H]3C1=O (stereo partly drawn)

1. 4.01
2. 1.45
3. 0.542
4. -0.988
5. -0.0061
6. -0.425
